Overview of reported pIC50 across a group of molecules:
# measurement-protocol: Ability to inhibit expression of Vascular cell adhesion molecule 1
pIC50: −log10 of the molar value.
measurement-kind: pIC50

- molecule: "COCCN(CCOC)S(=O)(=O)c1ccc(Cl)c([N+](=O)[O-])c1"
  reading: 5.30
- molecule: "N#Cc1cc([N+](=O)[O-])cc([N+](=O)[O-])c1 [3,5-Dinitro-benzonitrile]"
  reading: 5.00
- molecule: "COC(=O)c1ccc(S(C)(=O)=O)c([N+](=O)[O-])c1"
  reading: 5.30
- molecule: "O=C(c1ccc(Cl)c([N+](=O)[O-])c1)c1ccc(Cl)c([N+](=O)[O-])c1 [Bis-(4-chloro-3-nitro-phenyl)-methanone]"
  reading: 5.30
- molecule: "CC(C)N(C(C)C)S(=O)(=O)c1ccc(Cl)c([N+](=O)[O-])c1"
  reading: 5.00

Data provenance: BindingDB's records for doi:10.1016/s0960-894x(01)00306-7
